Origin of values: PubChem BioAssay AID342

Give T/C for every item shown.
# Tested on: Swiss mice, Sarcoma 180 sc, mean tumor weight T/C
# assay_details: NCI In Vivo Anticancer Drug Screen. Data for tumor model Sarcoma 180 (subcutaneous) in Swiss mice
# conditions_used: endpoint: mean tumor weight; dose: 6.0 mg/kg/injection; schedule: Q01DX007 (ip); vehicle: other; higher = larger tumour

Use these answered entries as a reference point.
In [3]: df
Out[3]:
                                item_smiles           result
0              ClCc1c2ccccc2c(CCl)c2ccccc12  17 % of control
1  Nc1nc(SN=Nc2ccc(S(=O)(=O)O)cc2)c2[nH]cnc2n1  65 % of control

Provide T/C for all items below, preserving their order.
1. CCCCOP(=S)(N1CC1)N1CC1
2. CC(=O)Nc1c(Cl)c(Cl)c2c(c1Cl)Cc1cc(Br)ccc1-2

1: 91 % of control; 2: 38 % of control

* * *

Task for the reader: assign each of the following molecules its reported T/C.
# Tested on: Swiss mice, Sarcoma 180 sc, mean tumor weight T/C
# assay_details: NCI In Vivo Anticancer Drug Screen. Data for tumor model Sarcoma 180 (subcutaneous) in Swiss mice
# conditions_used: endpoint: mean tumor weight; dose: 10.0 mg/kg/injection; schedule: Q01DX007 (ip); vehicle: other; higher = larger tumour

>>> print(df.to_string())
                                   molecule  readout_name           result
0  CC(=O)OCC1OC(n2cnc3c(=S)nc(N)[nH]c32)C(OC(C)=O)C1OC(C)=O (stereo not given)           T/C  51 % of control

List the reported T/C of each molecule below.
1. COC(=O)C1=CO[C@@H](C)[C@@H]2Cn3ccc4c5ccccc5nc-4c3C[C@H]12
2. CCCCOP(=S)(N1CC1)N1CC1
3. CCN(CC)c1ccc(/C=C/c2ccnc3ccccc23)cc1
4. COC(=O)c1cccc2c[n+]3c(cc12)-c1[nH]c2cc(OC)ccc2c1CC3

113 % of control
103 % of control
107 % of control
70 % of control

* * *

# Test system: Swiss mice, Sarcoma 180 sc, mean tumor weight T/C
# assay_details: NCI In Vivo Anticancer Drug Screen. Data for tumor model Sarcoma 180 (subcutaneous) in Swiss mice
# conditions_used: endpoint: mean tumor weight; dose: 120.0 mg/kg/injection; schedule: Q01DX007 (ip); vehicle: carboxymethylcellulose (CMC); higher = larger tumour
readout_name: T/C

Reference set, count: 4
In [3]: df
Out[3]:
                                item_smiles            result
0              Nc1nc(SC2CCCCC2)c2[nH]cnc2n1   89 % of control
1        CCCCCCCCCCCCOP(N)(=O)OCCCCCCCCCCCC   54 % of control
2                                     CNC=O   19 % of control
3  Cc1cc2nc(Cc3nc4cc(C)c(C)cc4[nH]3)[nH]c2cc1C  122 % of control

Then this molecule:
Determine reported T/C for O=C(Nc1ccc(C2=NCCN2)cc1)c1cccc(C(=O)Nc2ccc(C3=NCCN3)cc2)c1 ; test system: Swiss mice, Sarcoma 180 sc, mean tumor weight T/C.
98 % of control
